MIC, Staph UC76, per-entry values.
measured attribute: MIC (µg/mL)

* CC(=O)N[C@H](C)C(=O)Nc1ccc(-c2ccc(C(=O)N[C@@H](C(=O)NC3C(=O)N4C(C(=O)O)=C(CSc5nnnn5C)CSC34)c3ccccc3)c(=O)[nH]2)cc1 (stereo partly drawn) | 0.8
* CC(=O)N[C@H](C)C(=O)Nc1ccc(-c2ccc(C(=O)N[C@@H](C(=O)NC3C(=O)N4C(C(=O)O)=C(COC(C)=O)CSC34)c3ccccc3)c(=O)[nH]2)cc1 (stereo partly drawn) | 0.8
* CC(=O)OCC1=C(C(=O)O)N2C(=O)C(NC(=O)[C@H](NC(=O)c3ccc(-c4ccc(NC(=O)[C@@H]5CCCN5C(C)=O)cc4)[nH]c3=O)c3ccccc3)C2SC1 (stereo partly drawn) | 0.8

* * *

MIC, Staph UC76, per-entry values.
measured attribute: MIC (µg/mL)

• CC(=O)N[C@H](CCC(N)=O)C(=O)Nc1ccc(-c2ccc(C(=O)N[C@@H](C(=O)NC3C(=O)N4C(C(=O)O)=C(CSc5nnnn5CC(=O)O)CSC34)c3ccccc3)c(=O)[nH]2)cc1 (some centres unmarked) = 6.3
• CC(=O)N[C@H](CC(N)=O)C(=O)Nc1ccc(-c2ccc(C(=O)N[C@@H](C(=O)NC3C(=O)N4C(C(=O)O)=C(CSc5nnnn5C)CSC34)c3ccccc3)c(=O)[nH]2)cc1 (some centres unmarked) = 0.8
• CC(=O)N1CCC[C@H]1C(=O)Nc1ccc(-c2ccc(C(=O)N[C@@H](C(=O)NC3C(=O)N4C(C(=O)O)=C(CSc5nnnn5C)CSC34)c3ccccc3)c(=O)[nH]2)cc1 (some centres unmarked) = 0.8
• CC(=O)OCC1=C(C(=O)O)N2C(=O)C(NC(=O)[C@H](NC(=O)c3ccc(-c4ccc(NC(=O)[C@@H]5CC(O)CN5C(C)=O)cc4)[nH]c3=O)c3ccccc3)C2SC1 (some centres unmarked) = 0.8
• CC(=O)N[C@@H](CCC(N)=O)C(=O)Nc1ccc(-c2ccc(C(=O)N[C@@H](C(=O)NC3C(=O)N4C(C(=O)O)=C(COC(C)=O)CSC34)c3ccccc3)c(=O)[nH]2)cc1 (some centres unmarked) = 0.8

Hello, the source for this data is patent US4311698A, in case you need it.
